Listed here: items and their measured response (photon counts).
Target: T1, biotin-MBP-tagged AtHAB1 (residues 172-511), Q9CAJ0
T1 chain: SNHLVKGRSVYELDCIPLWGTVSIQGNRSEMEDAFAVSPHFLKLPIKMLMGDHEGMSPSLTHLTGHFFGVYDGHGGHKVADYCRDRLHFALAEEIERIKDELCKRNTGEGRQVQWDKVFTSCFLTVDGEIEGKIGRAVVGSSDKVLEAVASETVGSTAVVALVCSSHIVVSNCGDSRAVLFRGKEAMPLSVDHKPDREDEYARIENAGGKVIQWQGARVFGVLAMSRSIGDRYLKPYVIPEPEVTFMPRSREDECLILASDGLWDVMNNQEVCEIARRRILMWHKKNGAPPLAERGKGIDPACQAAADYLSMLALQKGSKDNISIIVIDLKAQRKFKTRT
Assay: AlphaScreen
Conditions: chain shown with the change; ABA (2 μM); parent: est. 6900; read off a plot
Respond using a number only.

* H6-SUMO-tagged FePYR1 S102A (protein) MEQQPAAAEPEVPAGLGLTAAEYAELQPTVEAYHRYAVGPGQCSSLVAQRIEAPAAAVWAIVRRFDCPQVYKHFIRSCALRPDPDAGDELRPGRLREVSVIAGLPASTSTERLDLLDDARRAFGFTITGGEHRLANYRSVTTVSELAPAAPAKICTVVLESYVVDVPEGNSEEDTRLFADTVVRLNLQKLKSLAEANATSAAAQATPPPQAE | 750

Briefly, response (photon counts) measured for H6-SUMO-tagged FePYR1 E160A (protein) MEQQPAAAEPEVPAGLGLTAAEYAELQPTVEAYHRYAVGPGQCSSLVAQRIEAPAAAVWAIVRRFDCPQVYKHFIRSCALRPDPDAGDELRPGRLREVSVISGLPASTSTERLDLLDDARRAFGFTITGGEHRLANYRSVTTVSELAPAAPAKICTVVLASYVVDVPEGNSEEDTRLFADTVVRLNLQKLKSLAEANATSAAAQATPPPQAE : 2600
